Data origin: patent US9707212B2

test: Mouse pharmacokinetic (PK) study; type: in vivo, male BALB/c mice; conditions: male, BALB/c, mouse, plasma; mice; PO 10 mg/kg, IV 2 mg/kg
# bioavailability per record follows

Previously resolved entries follow.
[[record]]
compound = "O=c1c2ccc(O)cc2oc(C(F)(F)F)c1[C@H]1CC[C@H](C(=O)O)CC1"
reported_property = "bioavailability"
value_reported = "4 to 41%"

[[record]]
compound = "Cc1sc2cc(O)ccc2c(=O)c1-c1ccc(-c2nnn[nH]2)cc1"
reported_property = "bioavailability"
value_reported = "4 to 41%"

[[record]]
compound = "O=C(O)c1ccc(-c2c(C(F)(F)F)oc3cc(O)ccc3c2=O)c(F)c1"
reported_property = "bioavailability"
value_reported = "~44%"


**Query** Which bioavailability is listed for O=c1[nH]c(-c2ccc(-c3c(C(F)(F)F)oc4cc(O)ccc4c3=O)cc2)no1 ?
**Result** 4 to 41%

**Query** Which bioavailability is listed for O=C(O)c1ccc(-c2c(C(F)(F)F)oc3cc(O)ccc3c2=O)cc1 [comparator compound, reference compound] ?
**Result** ~17%

**Query** Which bioavailability is listed for O=c1c(-c2ccc(-c3nnn[nH]3)cc2)c(C(F)(F)F)oc2cc(O)ccc12 ?
**Result** 4 to 41%
